Test system: Staphylococcus aureus
assay info: Antibacterial activity against Staphylococcus aureus by agar well diffusion method
Format: functional
MIC by entry:
Value expressed in µg/mL; do not type the unit.

Completed entries (count: 4):
compound	target system	MIC [µg/mL]
CCOC(=O)C1=C(C)NC(=S)NC1c1ccc(NC(=S)Nc2ccc(C(F)(F)F)cc2)cc1 (stereo not given)	Staphylococcus aureus	10
CCOC(=O)C1=C(C)NC(=S)NC1c1ccc(NC(=S)Nc2ccccc2OC(F)(F)F)cc1 (stereo not given)	Staphylococcus aureus	45
CCOC(=O)C1=C(C)NC(=S)NC1c1ccc(NC(=S)Nc2ccc(OC)cc2)cc1 (stereo not given)	Staphylococcus aureus	10
CCOC(=O)C1=C(C)NC(=S)NC1c1ccc(NC(=S)Nc2c(F)cccc2C(F)(F)F)cc1 (stereo not given)	Staphylococcus aureus	35

Now examine the next entry.
For CCOC(=O)C1=C(C)NC(=S)NC1c1ccc(NC(=S)Nc2c(C)cccc2F)cc1 (stereo not given) the compound record lists MIC as 90

---

Tested on: THP-1
assay info: Anti-inflammatory activity in Homo sapiens (human) THP1 cells assessed as inhibition of LPS-induced TNF-alpha production preincubated at 10 uM for 30 min before LPS treatment measured after 24 hr by ELISA
Type: functional
In this section, each of the compounds is paired with its reported inhibition at 10 µM.
Returns: string containing the numeric result and its unit.

Some solved cases for reference:
compound	readout value
CCOC(=O)C1=C(C)NC(=S)NC1c1ccc(NC(=S)Nc2c(Cl)cccc2C(F)(F)F)cc1 (stereo not drawn)	46%
CCOC(=O)C1=C(C)NC(=S)NC1c1ccc(NC(=S)Nc2ccc(C)c(C)c2)cc1 (stereo not drawn)	0%

// inhibition at 10 µM value for CCOC(=O)C1=C(C)NC(=S)NC1c1ccc(NC(=S)Nc2ccc(F)c(C)c2)cc1 (stereo not drawn) : 0%

---

System: Staphylococcus aureus
assay info: Antibacterial activity against Staphylococcus aureus by agar well diffusion method
Assay type: functional
The label True is reserved for MIC strictly under 60 µg/mL; False covers values equal to or above it.

Reference set (3 entries):
compound	target system	category
CCOC(=O)C1=C(C)NC(=S)NC1c1ccc(NC(=S)Nc2cccc(C(F)(F)F)c2)cc1 (stereo not drawn)	Staphylococcus aureus	True
CCOC(=O)C1=C(C)NC(=S)NC1c1ccc(NC(=S)Nc2cc(F)cc(F)c2)cc1 (stereo not drawn)	Staphylococcus aureus	False
CCOC(=O)C1=C(C)NC(=S)NC1c1ccc(NC(=S)Nc2c(Cl)cccc2C(F)(F)F)cc1 (stereo not drawn)	Staphylococcus aureus	False

Ask: Item CCOC(=O)C1=C(C)NC(=S)NC1c1ccc(NC(=S)Nc2c(C)cccc2Cl)cc1 (stereo not drawn) : MIC beneath 60 µg/mL, strictly?
Result: True

Ask: Dear reviewer, please state whether CCOC(=O)C1=C(C)NC(=S)NC1c1ccc(NC(=S)Nc2ccccc2C(F)(F)F)cc1 (stereo not drawn) has MIC strictly beneath 60 µg/mL.
Result: True

Ask: Input CCOC(=O)C1=C(C)NC(=S)NC1c1ccc(NC(=O)Nc2ccccc2Oc2ccccc2)cc1 (stereo not drawn) ; condition: MIC strictly below 60 µg/mL. Does it hold?
Result: True
